Entries and their measured pEC50 follow.
Biological target: glutathione-S-transferase (GST) tagged LXRalpha LBD (ligand binding domain) (Homo sapiens, UniProt Q13133)
Sequence (Q13133 209-447 limits assumed): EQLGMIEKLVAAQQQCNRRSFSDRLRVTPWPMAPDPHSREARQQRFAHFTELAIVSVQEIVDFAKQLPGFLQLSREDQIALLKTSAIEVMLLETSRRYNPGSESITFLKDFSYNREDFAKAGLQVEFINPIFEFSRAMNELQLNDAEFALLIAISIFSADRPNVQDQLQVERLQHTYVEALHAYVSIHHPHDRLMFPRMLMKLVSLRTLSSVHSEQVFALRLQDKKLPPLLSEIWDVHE
Experiment: LanthaScreen TR-FRET Liver X Receptor Coactivator Assay, LXR alpha-LBD
Conditions: potency (Inflection Point) of co-activator recruitment, TR-FRET; read-out: LXR alpha IP
Method: While running the LanthaScreen™ TR-FRET Liver X Receptor Coactivator Assay, LXR alpha-LBD or LXR beta-LBD was added to ligand test compounds followed by addition of a mixture of a fluorescein-labelled coactivator peptide and terbium-conjugated anti-GST antibody. After an incubation period at room temperature, TR-FRET (time-resolved fluorescence resonance energy transfer) was measured using a filter-based instrument capable of TR-FRET, e.g. PerkinElmer Envision.
pEC50: −log10 of the molar value.
experimental_endpoint: pEC50

chem_smiles=CN(CCn1cncn1)C(=O)c1ccc(-c2cnc(N3CCN(C(=O)OC(C)(C)C)CC3)c(C#N)c2)cc1Cl experimental_endpoint=pEC50 number=5.07
chem_smiles=CN(C)C(=O)c1ccc(-c2cnc(N3C4CCC3C3CCC4N3C(=O)OC(C)(C)C)c(C#N)c2)cc1Cl experimental_endpoint=pEC50 number=4.96
chem_smiles=CN(C)C(=O)c1ccc(-c2cc(Cl)c(N3CCN(C(=O)c4ccccc4Cl)CC3)c(Cl)c2)cc1Cl experimental_endpoint=pEC50 number=5.80
chem_smiles=CN(C)C(=O)c1ccc(-c2cnc(N3CCN(C(=O)C(C)(C)c4ccccc4)CC3)c(C#N)c2)cc1Cl experimental_endpoint=pEC50 number=4.79
